# target.entity: eIF2B decamer, eIF2B(αβδγε)2 (ISRIB pocket at the eIF2Bβ/eIF2Bδ interface) (Homo sapiens, UniProt P49770+Q9UI10)
# Construct: full eIF2B(αβδγε)2 decamer assembled from purified eIF2Bβγδε and eIF2Bα2; with eIF2Bβ (EIF2B2), with eIF2Bα, eIF2Bγ, eIF2Bε
# procedure.details: fluorescence polarization competition with FAM-ISRIB; also FRET assembly of tetramers (EC50 […]), re-refined cryo-EM model
measure: pIC50
On this scale, pIC50 is minus log10 of a concentration expressed in M (mol/L).

Q: What pIC50 value was documented for this compound, O=C(COc1ccc(Cl)cc1)N[C@H]1CC[C@H](NC(=O)COc2ccc(Cl)cc2)CC1 ?
A: 7.43
